Would you kindly list IC50 for each of these binders?
Molecular target: HLA-A*0203 (human)
Test: 125I-probe peptide inhibition, purified HLA
Details: remark: other sources report otherwise
Non-standard residues stand in square brackets, D forms with d. No end group written: not given here. Abu = CC[C@H](N)C(=O)O
Report only the number, with the unit nM understood.

In: Using the record for KQSQHMTEV [p53.164] , report its IC50.
Out: 170

In: Would you kindly share the measured IC50 for KMF[Abu]QLAKV [p53.132B4V9] ?
Out: 9.1

In: Fill in: IC50 of KMFCQLAKV [p53.132V9] is ___
Out: 7.7

In: State the recorded IC50 for this entry: RMPEAAPPV [p53.65 (9-mer)]
Out: 22
